assay_protocol: HCl pH dependent solubility profile study
Format: physicochemical
cond: aqueous buffer, thermodynamic from solid; pH 6.8 Phosphate Buffer; initial pH 6.80, end pH 6.86
assay_readout: solubility (µg/mL)
Only the number, expressed in µg/mL, is required.

Exercise: Quick check: solubility of N#CCC1CCN(c2nc(Nc3ccc(N4CCC(O)CC4)cc3)c3c(=O)[nH]ncc3n2)CC1 [Compound 1] ?
Solution: 2.7

====

assay_protocol: Phase 1/2 trial in solid tumors and hematologic malignancies: pharmacokinetics
Format: in vivo, human
cond: human, in vivo; steady-state, 40 mg BID, oral; read-out: AUC (0-12 h)
assay_readout: AUC(0-t)
Provide the measurement as a number trailed by its unit.

Exercise: Quick check: AUC(0-t) of N#CCC1CCN(c2nc(Nc3ccc(N4CCC(O)CC4)cc3)c3c(=O)[nH]ncc3n2)CC1 [Compound 1] ?
Solution: 6.3 µM·h
